Listing of recorded MIC by entry.
system: Enterococcus faecalis ATCC 29212; experiment: Broth microdilution MIC, E. faecalis ATCC 29212; assay type: cell-based; conditions: ATCC29212, broth microdilution, 37° C., 20 hours, read-out: MIC E. faecalis ATCC 29212
Respond with the bare value in µg/mL.

Cl.O=c1[nH]c(NCc2ccc(Cl)c(Cl)c2)nc2cnn(C3CCN(C4CCOCC4)CC3)c12 [Compound 242] : 4
COc1ccnc(C(=O)N2CCC(n3ncc4nc(NCc5ccc(Cl)c(Cl)c5)[nH]c(=O)c43)CC2)c1.Cl [Compound 263] : 4
Cl.O=c1[nH]c(NCc2ccc(Cl)c(Cl)c2)nc2cnn(CCc3cccnc3)c12 [Compound 110] : 4
CC(C)(C)OC(=O)N1CCC(CN2CCC(n3ncc4nc(NCc5ccc(Cl)c(Cl)c5)[nH]c(=O)c43)CC2)CC1 [Compound 248] : 4

Provide the documented MIC with Enterococcus faecalis ATCC 29212 as the system for Cl.Cl.O=c1[nH]c(NCc2ccc(Cl)c(Cl)c2)nc2cnn(CCN3CCN(CCO)CC3)c12 [Compound 71]
32

====

test system: Enterococcus faecium ATCC 700221 (VRE); assay: Broth microdilution MIC, E. faecium ATCC 700221 (VRE); type: cell-based; conditions: Enterococcus faecium; broth microdilution, 37° C., 20 hours; read-out: MIC E. faecium ATCC 700221 (VRE)
outcome_measure: MIC (µg/mL)
Respond with the bare value in µg/mL.

Cl.O=C(c1ccccn1)N1CCC(n2ncc3nc(NCc4ccc(Cl)c(Cl)c4)[nH]c(=O)c32)C1 (stereo not shown) [Compound 257] : 4
O=c1[nH]c(NCc2ccc(Cl)c(Cl)c2)nc2cnn(C3CCOCC3)c12 [Compound 121] : 2
COc1ccnc(C(=O)N2CCC(n3ncc4nc(NCc5ccc(Cl)c(Cl)c5)[nH]c(=O)c43)CC2)c1.Cl [Compound 263] : 1
O=c1[nH]c(NCc2ccc(Cl)c(Cl)c2)nc2cnn(CCCOCCO)c12 [Compound 169] : 4
CC(=O)N1CCN(CCn2ncc3nc(NCc4ccc(Cl)c(Cl)c4)[nH]c(=O)c32)CC1.Cl [Compound 64] : 2

Provide the documented MIC with Enterococcus faecium ATCC 700221 (VRE) as the system for Cl.Cl.O=c1[nH]c(NCc2ccc(Cl)c(Cl)c2)nc2cnn(C3CCN(Cc4cccnc4)CC3)c12 [Compound 245]
1

Provide the documented MIC with Enterococcus faecium ATCC 700221 (VRE) as the system for O=c1[nH]c(NCc2ccc(Cl)c(Cl)c2)nc2cnn(C3CCCC3)c12 [Compound 214]
1

Provide the documented MIC with Enterococcus faecium ATCC 700221 (VRE) as the system for COc1ccncc1C(=O)N1CCC(n2ncc3nc(NCc4ccc(Cl)c(Cl)c4)[nH]c(=O)c32)CC1.Cl [Compound 266]
2

Provide the documented MIC with Enterococcus faecium ATCC 700221 (VRE) as the system for O=c1[nH]c(NCc2ccc(Cl)c(Cl)c2)nc2cnn(-c3ccccc3)c12 [Compound 212]
1

Provide the documented MIC with Enterococcus faecium ATCC 700221 (VRE) as the system for O=c1[nH]c(NCc2ccc(F)c(F)c2)nc2c(F)nn(CCOCCO)c12 [Compound 301]
4

====

Listing of recorded MIC by entry.
system: Enterococcus faecium ATCC 700221 (VRE); test: Broth microdilution MIC, E. faecium ATCC 700221 (VRE); type: cell-based; details: Enterococcus faecium; broth microdilution, 37° C., 20 hours; read-out: MIC E. faecium ATCC 700221 (VRE)

Here is how some compounds turned out for MIC.
Cn1ncc2nc(Nc3ccccc3)[nH]c(=O)c21 : > 64 µg/mL
CCc1[nH]c(CNc2nc3cnn(C)c3c(=O)[nH]2)nc1Cl.Cl : > 64 µg/mL
Cn1ncc2nc(NCc3ccncc3)[nH]c(=O)c21 : > 64 µg/mL

Continue with the compound presented below.
Which MIC is reported for this compound? `Cn1ncc2nc(NCc3c(Cl)cccc3Cl)[nH]c(=O)c21`
> 64 µg/mL

====

tested on: Enterococcus faecium ATCC 700221 (VRE); experiment: Broth microdilution MIC, E. faecium ATCC 700221 (VRE); type: cell-based; details: Enterococcus faecium; broth microdilution, 37° C., 20 hours; read-out: MIC E. faecium ATCC 700221 (VRE)
Define the label as fulfilled when MIC is strictly less than 4 µg/mL and as not fulfilled in all remaining cases.

See these solved cases before continuing.
COc1cncc(C(=O)N2CCC(n3ncc4nc(NCc5ccc(Cl)c(Cl)c5)[nH]c(=O)c43)CC2)c1.Cl : fulfilled
CNC(=O)C(CCCn1ncc2nc(NCc3ccc(Cl)c(Cl)c3)[nH]c(=O)c21)c1ccccc1 (centres unmarked) : not fulfilled
O=c1[nH]c(NCc2ccc(Cl)c(Cl)c2)nc2cn(C3COC3)nc12 : not fulfilled
O=c1[nH]c(NCc2ccc(Cl)c(Cl)c2)nc2cnn(CCCc3nnn[nH]3)c12 : not fulfilled

For this molecule, is MIC lower than 4 µg/mL? `CS(=O)(=O)NC(=O)Cn1ncc2nc(NCc3ccc(Cl)c(Cl)c3)[nH]c(=O)c21`
not fulfilled

For this molecule, is MIC lower than 4 µg/mL? CC(C(=O)O)n1cc2nc(NCc3ccc(Cl)c(Cl)c3)[nH]c(=O)c2n1 (centres unmarked)
not fulfilled

For this molecule, is MIC lower than 4 µg/mL? `Cn1ncc2nc(Nc3ccc(Cl)c(Cl)c3)[nH]c(=O)c21`
not fulfilled

For this molecule, is MIC lower than 4 µg/mL? `O=C(c1cocn1)N1CCC(n2ncc3nc(NCc4ccc(Cl)c(Cl)c4)[nH]c(=O)c32)CC1`
fulfilled

For this molecule, is MIC lower than 4 µg/mL? `Cn1ncc2nc(NCc3cnco3)[nH]c(=O)c21`
not fulfilled

For this molecule, is MIC lower than 4 µg/mL? `COC(=O)CCCCn1ncc2nc(NCc3ccc(Cl)c(Cl)c3)[nH]c(=O)c21`
fulfilled

For this molecule, is MIC lower than 4 µg/mL? `CNC(=O)c1nn(C)c2c(=O)[nH]c(NCc3ccc(Cl)c(Cl)c3)nc12`
not fulfilled

For this molecule, is MIC lower than 4 µg/mL? `Cl.O=c1[nH]c(NCc2ccc(Cl)c(Cl)c2)nc2cnn(C3CCN(S(=O)(=O)c4cccnc4)CC3)c12`
fulfilled

For this molecule, is MIC lower than 4 µg/mL? `Cn1ncc2nc(NCc3cccc(Cl)c3Cl)[nH]c(=O)c21`
not fulfilled

For this molecule, is MIC lower than 4 µg/mL? Cn1nc(C2CCCO2)c2nc(NCc3ccc(Cl)c(Cl)c3)[nH]c(=O)c21 (centres unmarked)
not fulfilled

For this molecule, is MIC lower than 4 µg/mL? `O=C(O)CCn1ncc2nc(NCc3ccc(Cl)c(Cl)c3)[nH]c(=O)c21`
not fulfilled

For this molecule, is MIC lower than 4 µg/mL? `Cc1nnc(CCn2ncc3nc(NCc4ccc(Cl)c(Cl)c4)[nH]c(=O)c32)o1`
fulfilled

For this molecule, is MIC lower than 4 µg/mL? `O=C(O)COCCn1cc2nc(NCc3ccc(Cl)c(Cl)c3)[nH]c(=O)c2n1`
not fulfilled

For this molecule, is MIC lower than 4 µg/mL? `CN1CCN(CCn2ncc3nc(NCc4ccc(Cl)c(Cl)c4)[nH]c(=O)c32)CC1=O`
fulfilled

For this molecule, is MIC lower than 4 µg/mL? `Cn1ncc2nc(NCc3ccccc3)[nH]c(=O)c21`
not fulfilled

For this molecule, is MIC lower than 4 µg/mL? CC(=O)N1CCC(Cn2ncc3nc(NCc4ccc(Cl)c(Cl)c4)[nH]c(=O)c32)C1 (centres unmarked)
fulfilled

For this molecule, is MIC lower than 4 µg/mL? `COCCCCCn1ncc2nc(NCc3ccc(Cl)c(Cl)c3)[nH]c(=O)c21`
fulfilled

For this molecule, is MIC lower than 4 µg/mL? Cl.O=c1[nH]c(NCc2ccc(Cl)c(Cl)c2)nc2cnn(CC3CCNC3)c12 (centres unmarked)
not fulfilled

====

test system: Streptococcus pneumoniae ATCC 49619; assay: Broth microdilution MIC, S. pneumoniae ATCC 49619; type: cell-based; details: ATCC49619, broth microdilution, 37° C., 20 hours, read-out: MIC S. pneumoniae ATCC 49619
Listing of recorded MIC by entry.

CC(C)(C)OC(=O)N1CCC(CN2CCC(n3ncc4nc(NCc5ccc(Cl)c(Cl)c5)[nH]c(=O)c43)CC2)CC1 : 8 µg/mL

Which MIC is reported for this compound? `O=c1[nH]c(NCc2ccc(Cl)c(Cl)c2)nc2cnn(CC3CCC3)c12`
8 µg/mL

Which MIC is reported for this compound? `Cc1ccc(CNc2nc3cnn(C)c3c(=O)[nH]2)cc1Cl`
8 µg/mL

Which MIC is reported for this compound? O=c1[nH]c(NCc2ccc(F)c(F)c2)nc2cnn(CC3CCO3)c12 (stereo not drawn)
8 µg/mL

Which MIC is reported for this compound? COCC(CN(C)C)OCCn1ncc2nc(NCc3ccc(Cl)c(Cl)c3)[nH]c(=O)c21.Cl (stereo not drawn)
8 µg/mL

Which MIC is reported for this compound? `O=C([C@@H](O)[C@H](O)CO)N1CCC(n2ncc3nc(NCc4ccc(Cl)c(Cl)c4)[nH]c(=O)c32)CC1`
8 µg/mL
